Tested on: HT-29
Experiment: Antiproliferative activity against human HT-29 cells assessed as inhibition of cell growth at 10 uM measured after 48 hrs by SRB assay relative to control
Type: functional
Conditions: HT-29, 48 h, read-out: GI
Readout: inhibition of growth at 10 µM (%)
Use % as the unit, but write only the number.

Item under review: COc1ccc2nc3c(cc2c1)C(=O)CC(C(F)(F)F)C3 (stereo not given) . Reported inhibition of growth at 10 µM?
89.1

Item under review: O=C1CC(c2ccccc2)Cc2nc3c(Br)cc(Br)cc3cc21 (stereo not given) . Reported inhibition of growth at 10 µM?
91.7

Item under review: COc1ccc2nc3c(cc2c1)C(=O)CC(c1ccccc1)C3 (stereo not given) . Reported inhibition of growth at 10 µM?
90

Item under review: O=C1CC(c2ccccc2)Cc2nc3ccc(Cl)cc3cc21 (stereo not given) . Reported inhibition of growth at 10 µM?
95.6

Item under review: O=C1CC(c2ccccc2)Cc2nc3ccc(Br)cc3cc21 (stereo not given) . Reported inhibition of growth at 10 µM?
97.8

###

Can you tell me GI50 for the items I'm about to list?
Test system: OVCAR-8
Test: Antiproliferative activity against human OVCAR8 cells assessed as inhibition of cell growth measured after 48 hrs by SRB assay
Format: functional
Settings: OVCAR-8, 48 h
Use nM as the unit, but write only the number.

Item under review: COc1ccc2nc3c(cc2c1)C(=O)CC(C(F)(F)F)C3 (stereo not given) . Reported GI50?
2040

Item under review: O=C1CC(c2ccccc2)Cc2nc3c(Br)cc(Br)cc3cc21 (stereo not given) . Reported GI50?
507

Item under review: O=C1CC(c2ccccc2)Cc2nc3ccc(Br)cc3cc21 (stereo not given) . Reported GI50?
461

Item under review: COc1ccc2nc3c(cc2c1)C(=O)CC(c1ccccc1)C3 (stereo not given) . Reported GI50?
1060

Item under review: O=C1CC(c2ccccc2)Cc2nc3ccc(Cl)cc3cc21 (stereo not given) . Reported GI50?
534

###

Test system: RXF 393
Assay: Antiproliferative activity against human RXF393 cells assessed as inhibition of cell growth at 10 uM measured after 48 hrs by SRB assay relative to control
Assay type: functional
Details: RXF 393, 48 h, read-out: GI
Readout: inhibition of growth at 10 µM (%)
Use % as the unit, but write only the number.

Item under review: COc1ccc2nc3c(cc2c1)C(=O)CC(C(F)(F)F)C3 (stereo not given) . Reported inhibition of growth at 10 µM?
102

Item under review: O=C1CC(c2ccccc2)Cc2nc3ccc(Br)cc3cc21 (stereo not given) . Reported inhibition of growth at 10 µM?
71.6

Item under review: O=C1CC(c2ccccc2)Cc2nc3c(Br)cc(Br)cc3cc21 (stereo not given) . Reported inhibition of growth at 10 µM?
70

Item under review: O=C1CC(c2ccccc2)Cc2nc3ccc(Cl)cc3cc21 (stereo not given) . Reported inhibition of growth at 10 µM?
78.2

Item under review: COc1ccc2nc3c(cc2c1)C(=O)CC(c1ccccc1)C3 (stereo not given) . Reported inhibition of growth at 10 µM?
103

###

Can you tell me inhibition of growth at 10 µM for the items I'm about to list?
Tested on: HCT-116
Experiment: Antiproliferative activity against human HCT116 cells assessed as inhibition of cell growth at 10 uM measured after 48 hrs by SRB assay relative to control
Format: functional
Conditions: HCT-116, 48 h, read-out: GI
Use % as the unit, but write only the number.

Item under review: COc1ccc2nc3c(cc2c1)C(=O)CC(C(F)(F)F)C3 (stereo not given) . Reported inhibition of growth at 10 µM?
88.1

Item under review: O=C1CC(c2ccccc2)Cc2nc3ccc(Br)cc3cc21 (stereo not given) . Reported inhibition of growth at 10 µM?
94.4

Item under review: O=C1CC(c2ccccc2)Cc2nc3ccc(Cl)cc3cc21 (stereo not given) . Reported inhibition of growth at 10 µM?
94.5

Item under review: COc1ccc2nc3c(cc2c1)C(=O)CC(c1ccccc1)C3 (stereo not given) . Reported inhibition of growth at 10 µM?
88.9

Item under review: O=C1CC(c2ccccc2)Cc2nc3c(Br)cc(Br)cc3cc21 (stereo not given) . Reported inhibition of growth at 10 µM?
93.8
